Data provenance: patent US20260217797A1

- Study target: SARS-CoV-2 Beta (B.1.351) spike protein (on reporter virus particles) (SARS-CoV-2, UniProt P0DTC2 14-1273)
- Measurement notes: cell-based or functional assay
Endpoint label: PsV neutralization IC90 (µg/mL)
Your answer should be a plain number; it is taken to be in µg/mL.

Examples with their reported PsV neutralization IC90 follow.
A-6 (antibody, V domains shown) VH: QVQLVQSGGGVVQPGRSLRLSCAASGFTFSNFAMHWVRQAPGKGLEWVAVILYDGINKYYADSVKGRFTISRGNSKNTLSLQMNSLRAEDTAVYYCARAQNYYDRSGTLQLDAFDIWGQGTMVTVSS VL: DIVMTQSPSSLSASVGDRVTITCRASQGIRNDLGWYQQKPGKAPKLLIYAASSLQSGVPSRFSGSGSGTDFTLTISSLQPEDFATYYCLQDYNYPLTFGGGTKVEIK ... 1.47
A-16 (antibody, V domains shown) VH: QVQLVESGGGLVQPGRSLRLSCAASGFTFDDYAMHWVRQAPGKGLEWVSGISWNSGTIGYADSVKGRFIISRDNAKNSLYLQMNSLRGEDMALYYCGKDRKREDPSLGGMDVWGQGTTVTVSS VL: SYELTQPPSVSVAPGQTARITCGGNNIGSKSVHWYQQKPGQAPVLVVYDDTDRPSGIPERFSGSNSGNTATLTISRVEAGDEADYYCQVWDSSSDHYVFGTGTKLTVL ... 0.905
A-18 (antibody, V domains shown) VH: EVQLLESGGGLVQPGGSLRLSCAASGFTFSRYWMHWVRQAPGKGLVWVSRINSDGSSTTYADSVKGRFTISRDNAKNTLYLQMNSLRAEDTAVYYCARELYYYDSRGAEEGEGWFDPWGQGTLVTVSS VL: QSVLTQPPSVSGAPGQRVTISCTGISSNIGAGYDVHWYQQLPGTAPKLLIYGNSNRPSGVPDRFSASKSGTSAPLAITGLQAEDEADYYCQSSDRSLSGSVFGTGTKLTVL ... 1.65

# context switch: different binder, same PsV neutralization IC90
Request the reported PsV neutralization IC90 associated with A-9 (antibody, V domains shown) VH: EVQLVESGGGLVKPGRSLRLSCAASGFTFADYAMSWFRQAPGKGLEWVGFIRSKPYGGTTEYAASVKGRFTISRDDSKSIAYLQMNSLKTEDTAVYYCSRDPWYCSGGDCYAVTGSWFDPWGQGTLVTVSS VL: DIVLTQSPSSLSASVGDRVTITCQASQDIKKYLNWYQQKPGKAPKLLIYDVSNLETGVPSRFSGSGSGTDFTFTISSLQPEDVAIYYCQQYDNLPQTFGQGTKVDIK
0.184
